Target: cloned 5-HT1A receptors (Homo sapiens, UniProt P08908)
Sequence (P08908 1-422): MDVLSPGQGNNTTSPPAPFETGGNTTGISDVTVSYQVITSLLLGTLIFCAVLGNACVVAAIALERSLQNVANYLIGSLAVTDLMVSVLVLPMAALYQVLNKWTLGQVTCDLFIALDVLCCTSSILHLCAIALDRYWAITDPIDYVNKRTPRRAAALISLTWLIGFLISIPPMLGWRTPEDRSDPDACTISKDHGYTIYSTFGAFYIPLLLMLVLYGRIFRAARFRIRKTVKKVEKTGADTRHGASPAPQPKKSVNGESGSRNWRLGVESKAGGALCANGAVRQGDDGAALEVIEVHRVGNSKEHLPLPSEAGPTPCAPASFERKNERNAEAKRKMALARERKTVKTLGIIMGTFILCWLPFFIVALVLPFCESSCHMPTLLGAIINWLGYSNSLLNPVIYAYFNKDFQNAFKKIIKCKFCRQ
Assay: Antagonism of 5-HT induced inhibition of forskolin induced cAMP accumulation
Details: cloned 5-HT1A receptors in transfected HeLa cells (HA7)
Description: The assay was performed as a modification of the method described by Pauwels, P. J et al, Biochem. Pharmacol. 1993, 45, 375.
Measured metric: pIC50
Lab note — pIC50 values are minus log10 of concentrations in M.

The examples below pair each entry with its known result.
Molecule: Clc1cccc2[nH]cc(CCN3CCN(c4cccc5c4OCCO5)CC3)c12.O=C(O)C(=O)O [Compound 1e, oxalate]
Tested system: cloned 5-HT1A receptors (Homo sapiens, UniProt P08908)
Measured metric: pIC50
Recorded value: 5.62
--
Molecule: Brc1ccc2[nH]cc(CCN3CCN(c4cccc5c4OCCO5)CC3)c2c1.O=C(O)C(=O)O [Compound 1b, oxalate]
Tested system: cloned 5-HT1A receptors (Homo sapiens, UniProt P08908)
Measured metric: pIC50
Recorded value: 5.30

Query: Identify the reported pIC50 for the following entry. COc1ccc2[nH]cc(CCN3CCN(c4cccc5c4OCCO5)CC3)c2c1
Result: 6.21

Query: Identify the reported pIC50 for the following entry. CC1(C)Cc2cccc(C3CCN(CCc4c[nH]c5cc(Cl)ccc45)CC3)c2O1
Result: 5.74

* * *

Measured metric: melting point

Compound: Clc1ccc2c(CCN3CCN(c4cccc5ccoc45)CC3)c[nH]c2c1 [Compound 1u]
melting point: 202 to 204 °C
--
Compound: CC1(C)Cc2cccc(N3CCN(CCc4c[nH]c5cc(Cl)ccc45)CC3)c2O1.O=C(O)/C=C/C(=O)O
melting point: 165 to 167 °C

Query: Identify the reported melting point for the following entry. Brc1ccc2[nH]cc(CCN3CCC(c4cccc5ccoc45)CC3)c2c1.O=C(O)C(=O)O
Result: 153 to 157 °C

* * *

Measured metric: melting point

Compound: CC(=O)N1CC(CCN2CCN(c3cccc4c3OCCO4)CC2)c2ccccc21 (stereo not shown)
melting point: 119 to 120 °C

Query: Identify the reported melting point for the following entry. Brc1ccc2[nH]cc(CCN3CCN(c4cccc5c4OCCO5)CC3)c2c1.O=C(O)C(=O)O
Result: 236 to 240 °C

Query: Identify the reported melting point for the following entry. Clc1ccc2c(CCN3CCN(c4c(Cl)ccc5c4OCCO5)CC3)c[nH]c2c1.O=C(O)C(=O)O
Result: 216 to 217 °C

Query: Identify the reported melting point for the following entry. Clc1ccc2c(CCN3CCN(c4cccc5c4SCC=C5)CC3)c[nH]c2c1
Result: 178 to 179 °C

Recorded values, source patent US6727263B2.
